Molecular target: T1, sTREM2 in cynomolgus CSF (cynomolgus monkey, UniProt A0A2K5UY34 49-187)
T1 construct: domain: soluble TREM2 (sTREM2); also called soluble TREM2 in healthy cynomolgus monkey CSF
T1 sequence: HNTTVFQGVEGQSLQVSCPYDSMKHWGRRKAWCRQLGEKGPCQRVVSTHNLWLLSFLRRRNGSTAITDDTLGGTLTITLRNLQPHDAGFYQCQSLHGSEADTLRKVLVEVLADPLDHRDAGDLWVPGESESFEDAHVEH
Test: MSD assay, sTREM2 from CSF captured by biotinylated goat anti-human TREM2, sulfo-tagged test antibody titrated
MEASURED PARAMETER: pEC50
On this scale, pEC50 is minus log10 of a concentration expressed in M (mol/L).

Reference antibody #1 (antibody, V domains shown, also called 4C5 (WO 2018/195506)) VH: EVQLVQSGAEVKKPGESLKISCKGSGHSFTNYWIAWVRQMPGKGLEWMGIIYPGDSDTRYSPSFQGQVTISADKSISTAYLQWSSLKASDTAVYFCARQRTFYYDSSGYFDYWGQGTLVTVSS VL: DIQMTQSPSSVSASVGDRVTITCRASQGISNWLAWYQQKPGKAPKLLIYAASSLQVGVPLRFSGSGSGTDFTLTISSLQPEDFATYYCQQADSFPRNFGQGTKLEIK :: 7.09

// pEC50 value for CL0020188-7 (antibody, V domains shown, Humanized variant of CL0020188) VH: EVQLVESGGGLVQPGGSLRLSCAASGFTFTDFYMSWVRQAPGKGLEWVSVIRNKANAYTAGYNPSVKGRFTISRDNSKNTLYLQMNSLRAEDTAVYYCARLTYGFDYWGQGTLVTVSS VL: DIVMTQTPLSLPVTPGEPASISCQSSKSLLHSTGKTYLNWYLQKPGQSPQLLIYWMSTRASGVPDRFSGSGSGTDFTLKISRVEAEDVGVYYCQQFLEYPFTFGQGTKVEIK : 9.14

Origin of values: patent US20220073609A1
